# MEASUREMENT_DESCRIPTION: Fluorescence viewed under long range UV light of 365 nm
# Assay type: physicochemical
# CONDITION_INFO: excitation at 365 nm
TEST_READOUT: fluorescence (fluorescent or not)

CCCCCc1cc2c(c(O)c1C(=O)O)[C@@H]1C=C(C)CC[C@H]1C(C)(C)O2 [D-9 THCA, Tetrahydrocannabinolic acid] ... fluorescent properties
CCCCCc1cc(OC(=O)CCCCC(=O)Oc2cc(CCCCC)cc3c2-c2cc(C)ccc2C(C)(C)O3)c2c(c1)OC(C)(C)c1ccc(C)cc1-2 [CBN adipate dimer, DiCannabinol adipate] ... fluorescent properties
CCCCCc1cc(O)c(C/C=C(\C)CCC=C(C)C)c(O)c1 [CBG, cannabigerol] ... lacking in fluorescence
CCCCCc1cc(O)c2c(c1)OC(C)(C)[C@@H]1CCC(C)=C[C@@H]21 [THC, tetrahydrocannabinol, reference compound] ... fluorescent

Q: Look at this compound and give its reported fluorescence (fluorescent or not). CCCCCc1cc(O)c2c(c1)OC(C)(C)c1ccc(C)cc1-2 [CBN, cannabinol]
A: fluorescent

Q: Look at this compound and give its reported fluorescence (fluorescent or not). CCCCCc1cc(OC(=O)CCCCC(=O)Oc2cc(CCCCC)cc3c2C2CC(C)=CCC2C(C)(C)O3)c2c(c1)OC(C)(C)C1CC=C(C)CC21 (stereo not drawn) [d-8 THC adipate dimer]
A: fluorescent properties

Q: Look at this compound and give its reported fluorescence (fluorescent or not). CCCCCc1cc(O)c2c(c1)OC(C)(C)[C@@H]1CC=C(C)C[C@@H]21 [D-8 THC]
A: fluorescent properties

Q: Look at this compound and give its reported fluorescence (fluorescent or not). C=C(C)[C@@H]1CCC(C)=C[C@H]1c1c(O)cc(CCCCC)cc1O [CBD, cannabidiol, reference compound]
A: lacking in fluorescence

Data provenance is patent US12480074B2.
